assay: viability loss of HPDE-C7K cells – cell-based, fluorescence, HTS, primary screen (AID 431); settings: HPDE-C7K KRASV12 cells, Alamar Blue viability, 48 h; at 10 µM; hits give high values;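 also: 0% = DMSO solvent wells and 100% = doxorubicin-treated wells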
Among all 63,000 compounds or so, about 1,100 (1.7%) were called active. This is one part of a sample in which actives are shown more often than they occur. Results with a measured potency or affinity are listed apart.
quantity.kind: cytotoxicity (%)
# unit: % | format: bare number

Input line: Recall and state the measured cytotoxicity for COc1ccc(Cn2c(N)c(C(=O)NCc3ccco3)c3nc4ccccc4nc32)cc1OC .
Output line: 3.1

Input line: Output cytotoxicity of O=P(C(c1ccc2c(c1)OCO2)N1CCOCC1)(N1CCOCC1)N1CCOCC1 (stereo not drawn)
Output line: -15.1

Input line: Give cytotoxicity for the following compound: CCn1nc(-c2cccs2)nc2c(=O)n(C)c(=O)nc1-2
Output line: 127

Input line: Look up and report measured cytotoxicity for this entry: c1cc2n(c1)-c1c(ccc3c1OCO3)CNC2c1ccc2c(c1)OCO2 (stereo not drawn)
Output line: 27.4

Input line: # return recorded cytotoxicity for entry C[C@@]1(CO)[C@H](O)CC[C@@]2(C)[C@H]1CC[C@H]1C[C@@H]3C[C@@]12CC[C@]3(O)CO
Output line: 69.7

Input line: Assign cytotoxicity to the following record: O=C(Nc1ccc(OC(=O)N2CCCC2)cc1)N1CCOCC1
Output line: -8.6

Input line: For the compound Cc1ccc2c(c1)C1CN(C)CCC1N2C(=O)c1ccco1 (stereo not drawn) , report cytotoxicity.
Output line: 2.2

Input line: Using known records, supply cytotoxicity for Cc1ccc(S(=O)(=O)N2CN3CCN(C3)C2)cc1
Output line: 11.8

Input line: Please look at this compound and report its cytotoxicity: CCOC(=O)c1c(N)n(Cc2ccco2)c2nc3ccccc3nc12
Output line: -13.8

Input line: For Cc1ccc(CN2CCN(C)CC2)c(C)c1 , write its cytotoxicity.
Output line: 14.3

Input line: Recall and state the measured cytotoxicity for CN=C(SCc1cc2c(cc1Cl)OCO2)c1c(O)n(C)c(=O)n(C)c1=O .
Output line: -13.4

Input line: Report cytotoxicity for OC1(c2ccccc2F)CC2CCC(C1)N2CCN1CCOCC1 (stereo not drawn)
Output line: -1.8

Input line: Return cytotoxicity (reported value) for this compound: CCn1nc(-c2ccccc2)nc2c(=O)n(C)c(=O)nc1-2
Output line: 123

Input line: Query cytotoxicity for CCc1nc2ccccc2c(=O)n1-c1cccc(OC)c1
Output line: -14

Input line: For CC1SC2(CN3CCC2CC3)NC1=O (stereo not drawn) , write its cytotoxicity.
Output line: -32

Input line: Find the measured cytotoxicity of CCCCn1c(=O)c(C(=O)Nc2ccccc2S(N)(=O)=O)c(O)c2ccccc21 and report it.
Output line: -11.7

Input line: Input Cc1ccc2c(c1)CC1(CN2C)C(=O)NC(=O)N(CCC2=CCCCC2)C1=O (stereo not drawn) , output reported cytotoxicity.
Output line: 5.2

Input line: Indicate its recorded cytotoxicity; the compound in question is O=c1[nH]c(=O)n(Cc2ccccc2)c(O)c1C=NCCN1CCNCC1
Output line: -15

Input line: Please look at this compound and report its cytotoxicity: CCCCCn1c(=O)c(C(=O)NCc2ccncc2)c(O)c2ccccc21
Output line: 33.3

Input line: Recall and state the measured cytotoxicity for CCCCCn1c(=O)c(C(=O)NCc2ccccn2)c(O)c2ccccc21 .
Output line: 8.3

Input line: Answer with the recorded cytotoxicity for the compound listed here: COc1ccc2[nH]cc(CCN(C)C)c2c1
Output line: 19.9

Input line: Quick one: give measured cytotoxicity for Cc1ccc2c(c1)CC1(CN2C)C(=O)NC(=O)N(c2ccccc2C)C1=O (stereo not drawn)
Output line: 8.7

Input line: Kindly indicate its recorded cytotoxicity. Item: O=c1[nH]c(=O)n(C2CCCCCC2)c(O)c1C=NCCCN1CCOCC1
Output line: -13.6

Input line: Given the compound COc1ccc(C2NCc3ccc4c(c3-n3cccc32)OCO4)cc1OC (stereo not drawn) , write its reported cytotoxicity.
Output line: 3.2

Input line: Supply reported cytotoxicity belonging to this compound: COCCOC(=O)c1c(N)n(Cc2ccco2)c2nc3ccccc3nc12
Output line: 15.2

Input line: Indicate its recorded cytotoxicity; the compound in question is CSc1nnc(C2CCNCC2)n1C
Output line: -11.4

Input line: Give cytotoxicity for CCCCn1c(O)c(C=NCCCN(CC)CC)c(=O)[nH]c1=O
Output line: 6.9

Input line: Please indicate cytotoxicity recorded for CCCCc1ccc2[nH]cc(CCN)c2c1
Output line: 89.6

Input line: Check the records and state cytotoxicity for COc1ccc(Cn2c(N)c(C(=O)NCc3ccco3)c3nc4ccccc4nc32)cc1
Output line: 75.2

Input line: State its cytotoxicity: CC(=NCc1ccc(F)cc1)c1c(O)n(C)c(=O)n(C)c1=O
Output line: 37.8

Input line: Give a short answer stating reported cytotoxicity for CCCCn1c(=O)c(C(=O)Nc2cnccn2)c(O)c2ccccc21 .
Output line: 51.5

Input line: Name the recorded cytotoxicity of the compound listed here: Cc1nc2c(-c3ccc(F)cc3)c(C)nn2c(C)c1CCC(=O)N1CCC2(CC1)OCCO2
Output line: 9.4

Input line: Return cytotoxicity for the following compound: O=c1c2ccccc2nc(-c2cccs2)n1-c1cnccn1
Output line: 15.2

Input line: Specify cytotoxicity for CCOc1ccc(C2SCC(=O)Nc3c2c(=O)[nH]n3C2CCCCCC2)cc1 (stereo not drawn) and stop.
Output line: -11.1

Input line: Report measured cytotoxicity; entry is CCCCCn1c(=O)c(C(=O)Nc2ccncc2)c(O)c2ccccc21
Output line: 73.1

Input line: Answer with the recorded cytotoxicity for the compound listed here: C=Cn1ccnc1P(=S)(c1c(C)nn(-c2ccccc2)c1C)c1nccn1C=C
Output line: 8.8

Input line: // Input: CC(C)(C)OC(=O)c1c(N)n(Cc2ccco2)c2nc3ccccc3nc12 . Output its cytotoxicity only.
Output line: 56.1

Input line: Indicate the recorded cytotoxicity value for this compound: CC(=NCCCN1CCCCC1)c1c(O)n(Cc2ccccc2)c(=O)[nH]c1=O
Output line: 9.4

Input line: Report cytotoxicity for CC(C)OC(=O)c1c(N)n(Cc2ccco2)c2nc3ccccc3nc12
Output line: -9

Input line: Given the compound O=C1NC(=O)C(CCc2ccncc2)(C2CCCCC2)C(=O)N1 , write its reported cytotoxicity.
Output line: -0.4

Input line: Please supply the value of reported cytotoxicity for the item COCCOC(=O)c1c(N)n(Cc2ccc(OC)cc2)c2nc3ccccc3nc12
Output line: -9.2

Input line: Answer with reported cytotoxicity of COC(=O)c1ccc(COc2cc(C)cc3oc(=O)c4c(c23)CCCC4)o1
Output line: 4.3

Input line: For COc1ccc(C2SCC(=O)Nc3c2c(=O)[nH]n3C2CCCCC2)cc1 (stereo not drawn) , write its cytotoxicity.
Output line: -1.2
